system: OVCAR-8 ovarian; test: NCI-60 one-dose screen, 48 h (100 = growth as untreated, 0 = no growth, -100 = all killed); details: 10 µM unless noted
About 83,000 compounds went through this panel and 20% of them were active in at least one assay; those are over-represented in the sample as a whole.
TEST READOUT: growth (%)
Give a bare numeral; the unit % is implied.

Example cases with answers are listed next.
COc1cccc(NC(=O)c2c(-c3ccccc3)c(-c3ccccc3)n[nH]c2=O)c1 = 103
COc1ccc(/C=C(/C(=O)N2CCN(c3ccccc3)CC2)c2cc(OC)c(OC)c(OC)c2)cc1O = 14.1

Query: Request body: readout growth, system OVCAR-8 ovarian, query "Nc1nc(N)c2cc(CNc3ccc(Cl)c(Cl)c3)ccc2n1" . Return the value.
Response: -1.81

Query: Let us now turn to COc1cc(C2Nc3ccccc3S2)cc(CN2CCOCC2)c1O (stereo not drawn)
Response: 88.9

Query: And what about the compound "O=S(=O)(NCC[C@@H]1C[C@H]1c1ccc2ccccc2c1)c1ccc(C(F)(F)F)cc1" ?
Response: 97.4

Query: Okay, and "CNC(=O)c1cc(Oc2ccc(NC(=O)c3nc(S(C)(=O)=O)sc3-c3ccc(F)cc3)cc2)ccn1" ?
Response: 102

Query: What do we get for CCOc1c(C#N)c2c(N)ncnc2n1C1OC(CO)C(O)C1O (stereo not drawn) ?
Response: 89.6

Query: And "O=C1c2ccccc2C(=O)c2c1oc1ccc3ccccc3c21" ?
Response: 88.2

Query: Now try "Cc1ccc(-c2cnc3sc4ccc(Cl)cc4n23)cc1" .
Response: 103

====

tested on: HS 578T breast; experiment: NCI-60 one-dose screen, 48 h (100 = growth as untreated, 0 = no growth, -100 = all killed); settings: 10 µM
Compounds without any hit were thinned out: in the full panel of roughly 83,000, 20% have a hit.
Could you please mark y for values of growth below 90% and n for values at or above it?

Solved cases below.
Cc1nc2ccc(Nc3nc(N4CCOCC4)nc(N4CCN(C)CC4)n3)cc2n1Cc1ccccc1 = y
CN1CCN(Cc2ccc(NC(=O)c3cncc(C#Cc4ccc(N)nc4)c3)cc2C(F)(F)F)CC1 = y
CCOC(=O)NNc1cccc(Cl)c1 = n
COC1CC(N)C2OC(c3ccccc3)OCC2O1 (stereo not given) = n
COC(=O)C(CCC(=O)CCl)N1C(=O)c2ccccc2C1=O (stereo not given) = y

Query: Threshold test, growth < 90%: CCOC(=O)C1=C(C)NC(SCc2nnc(-c3ccc(Cl)cc3)o2)=NC1c1ccc(Br)cc1 (stereo not given)
Response: y

Query: Next record, please: "CCCCCNCCCCCNc1cc(OC)cc2cccnc12"
Response: n

Query: And then "CC[C@H](Nc1nc(N)nc(C2CC2)c1C#N)c1nc2cccc(NCc3ccc(C(=O)NO)cc3)c2c(=O)n1-c1ccccc1" , what is it?
Response: y

Query: Another compound: "Cc1ccc(-c2cnc3sc4ccc(Cl)cc4n23)cc1"
Response: n

Query: Thanks! And "COc1ccc(/C=C(/C(=O)N2CCN(c3ccccc3)CC2)c2cc(OC)c(OC)c(OC)c2)cc1N" ?
Response: y

Query: Record: COC(=O)C1(C)COP(=O)(NC23CC4CC(CC(C4)C2)C3)OC1 (stereo not given)
Response: n

Query: Another compound to look at: "O=c1cc(-c2ccc3c(c2)OCCO3)oc2cc(Cl)ccc12"
Response: y

Query: Then what about the compound "COc1cc(/C=C/C(=O)c2ccc(NC(=O)CSc3nnc(-c4ccc(Cl)cc4)n3-c3ccccc3)cc2)cc(OC)c1OC" ?
Response: n

====

system: MALME-3M melanoma; assay: NCI-60 one-dose screen, 48 h; conditions: 10 µM unless noted
This is part of a sample that, as a whole, favours compounds with a hit. Of some 83,000 tested, about 20% had one in any assay. Calls of active or inactive are those of the source. Rule for the calls: active = growth percent below 10; inactive = the rest.
Hello, when you answer, please use one of the following outcomes: t for active, f for inactive

Cc1ccc(NC(=O)c2[nH]c(SCCN(C)C)nc2-c2ccc(F)cc2)cc1C#Cc1cnc2cccnn12 = t
N=C(N)c1ccc(-c2ccc(-c3cc(Cl)cc(Cl)c3)o2)nc1 = t
CCN(CC)CCC(CNc1ccnc2cc(Cl)ccc12)c1ccc(O)cc1 (stereo unspecified) = f
CCCCCCCCCCCCCC[N+](C)(C)CCCCCCCCCCCCCC = f
FC(F)(F)c1ccc(/C=N/Nc2nnc3n2N=C(c2ccc(Cl)cc2)CS3)cc1 = f

Query: Hi, do you know how "COc1ccc(NC(=O)/C=C/c2ccc(NC(=O)N3CCCC3)cc2)cn1" came out in this test?
Response: f

Query: What do you have for "CN(C)c1ccc(/C=C(\C#N)c2nc3ccccc3n2C)cc1" ?
Response: f

Query: # iterate: "Cc1nc2c(-c3cnc(N)nc3)nc(N3CCOCC3)nc2n1C(C)C"
Response: t

Query: Entry "CCCCCCCCCCCC1=NC(C)(C)CN1C(C)(C)CO" please
Response: f

Query: Now the molecule "CN(C)c1ccc(/C=N/Nc2nnc3n2N=C(c2ccc(Cl)cc2)CS3)cc1"
Response: f

Query: Next entry: Cc1cc(NC(=O)C2c3ccccc3C(=O)N(CC(C)C)C2c2cccs2)no1 (stereo unspecified)
Response: t

====

The following compounds are shown together with reported growth values.
test system: SN12C renal; assay: NCI-60 one-dose screen, 48 h (100 = growth as untreated, 0 = no growth, -100 = all killed); conditions: 10 µM unless noted
About 83,000 compounds went through this panel and 20% of them were active in at least one assay; those are over-represented in the sample as a whole. Calls of active or inactive are those of the source. The calls were made as follows: active = growth percent below 10; inactive = the rest.

C=C1NC(=O)C(C(C)CC)NC(=O)C2CSCC(NC(=O)CCC(=O)O)C(=O)NC(Cc3ccccc3)C(=O)NC(C)C(=O)NC(CC(C)CC)C(=O)NC(C(=O)NC(Cc3ccccc3)C(=O)N3CCCC3C(=O)N2)C(C)OC(=O)C(CO)NC(=O)C(C(O)COC)N(C)C(=O)C(C(C)C)NC(=O)C(CC(C)CC)NC1=O (stereo not drawn) = 31.4% [6 µM] (inactive)

Query: Look up growth: O=C(O)C1[S][Sb]([CH](C(=O)O)[CH](C(=O)O)[Sb]2[S]C(C(=O)O)C(C(=O)O)[S]2)[S]C1C(=O)O (stereo not drawn)
Response: 90.2% (inactive)

Query: Could you do the same for "Cc1cc(C)c(C#N)c(SCC(=O)c2sc3c(C#N)c(C)cc(C)[n+]3c2[O-])n1" , please?
Response: 31.4% (inactive)

Query: Now the same for CCCCC(CCc1ccccn1)C(=O)c1ccccc1 (stereo not drawn)
Response: 122% (inactive)

====

tested on: HT29 colon; experiment: NCI-60 one-dose screen, 48 h (100 = growth as untreated, 0 = no growth, -100 = all killed); conditions: 10 µM unless noted
The panel holds about 83,000 compounds, 20% with a hit somewhere; the sample as a whole holds those more often.
Entries and their growth
Give a bare numeral; the unit % is implied.

CCCCN(CCCC)CCCN=c1nc2c(c(N)n1-c1ccccc1)c(=S)n(-c1ccccc1)c(=S)n2-c1ccccc1 = -63.3
COc1ccc(C(=O)c2cc(C)c(OC)c(C)c2)cc1OC(=O)CCl = 13.3
O=C(CCc1nc2sc3c(c2c(=O)[nH]1)CCC3)NCc1cn(-c2ccccc2)nc1-c1ccccc1 = 83.3
CC1(C)C2CCC(O)(C(=O)O)C1C2 (stereo not given) = 110
Clc1ccc(Nc2ncnc3c2sc2ncccc23)c(Cl)c1 = 39.4
O=C(c1ccccc1)N(CCCCl)C(=O)N(CCCCl)C(=O)c1ccccc1 = 82.1
O=C(Nc1ccccc1)C(CCCCN1C(=O)c2ccccc2C1=O)N1C(=O)c2ccccc2C1=O (stereo not given) = 107
O=C1/C(=C\c2cccn2C(=O)c2ccccc2)c2ccccc2N1c1c(Cl)cccc1Cl = 70
COc1ccc(/C=C/C(=O)c2ccc(NC(=O)CSc3nnc(-c4ccc(OC)cc4)n3-c3ccccc3)cc2)cc1 = 103
COc1ccc([C@@H]2[C@@H](Oc3ccccc3)C(=O)N2c2cc(OC)c(OC)c(OC)c2)cc1F = -6.94

Please turn your attention to the following entry.
Query: Form entry - test system: HT29 colon; read-out: growth; compound: "CCCCn1c(C)nc2cc(Nc3nc(Cl)nc4nc[nH]c34)ccc21"
Response: 83.6

====

Below: a set of entries, each annotated with reported growth.
System: MCF7 breast
Test: NCI-60 one-dose screen, 48 h (100 = growth as untreated, 0 = no growth, -100 = all killed)
Conditions: 10 µM unless noted
Protocol: Growth inhibition of the MCF7 human tumor cell line is measured as a screen for anti-cancer activity. Cells are grown in 96 well plates and exposed to the test compound for 48 hours. Compounds are tested at a single concentration, which is 10^-5 M for most compounds. The reported endpoint is percent growth (GI% or GIPRCNT), where numbers from 0 - 100% represent growth inhibition, and numbers from -100% - 0 represent cell death. For example, a value of 40 represents 60% growth inhibition. […]
About 83,000 compounds went through this panel and 20% of them were active in at least one assay; those are over-represented in the sample as a whole. Activity calls are given as the source filed them. The calls were made as follows: active = growth percent below 10; inactive = the rest.

# count of solved cases: 2
COc1cc(/C=C/c2ccc3c(Br)cc(Br)c(O)c3n2)ccc1O = 10.2% (inactive)
CC1=C(C(=O)Nc2ccc(F)cc2)C(c2ccccc2)C2=C(CC(C)(C)CC2=O)N1 (stereo not drawn) = 67.1% (inactive)

Now look at this one.
Query: Provide value of growth for this record tested with MCF7 breast: "CN(CCO)c1ccc(N2Cc3ccccc3OC3=C2C(=O)c2c(O)ccc(O)c2C3=O)cn1"
Response: -34.9% (active)

Origin of values: PubChem BioAssay (NCI)
